Test: MRT in Sprague-Dawley rat at 0.3 mg/kg, iv
Type: ADME, organism-based
Conditions: in vivo
READOUT LABEL: MRT (h)
Quick note: give the figure in h, leave out the unit.

So what's the measured MRT for this one? `Cc1cc(F)ccc1N1CCN(C(=O)N[C@@H](C(=O)Nc2cc(CN(C)C)ccc2OC(F)(F)F)[C@@H](C)c2c[nH]c3ccccc23)CC1=O` 2.57

###

Tested on: HepG2
Test: Induction of phospholipidosis in human HepG2 cells up to 50 uM after 24 hrs by NBD-PE fluorophore-based assay relative to amiodarone
Assay type: cell-based
Settings: hepg2, 24 h
READOUT LABEL: Activity (%)
Quick note: give the figure in %, leave out the unit.

So what's the measured Activity for this one? `CCOc1ccc(CN(C)C)cc1NC(=O)[C@H](NC(=O)N1CCC(C(=O)C2CCC2)CC1)[C@@H](C)c1c[nH]c2ccccc12` 75

So what's the measured Activity for this one? `CCOc1ccc(CN(C)C)cc1NC(=O)[C@H](NC(=O)N1CCN(C(=O)C2CCC2)CC1)[C@@H](C)c1c[nH]c2ccccc12` 32

So what's the measured Activity for this one? `C[C@@H](c1c[nH]c2ccccc12)[C@@H](NC(=O)N1CCN(C(=O)C(C)(C)C)CC1)C(=O)Nc1cc(CN(C)C)ccc1OC(F)(F)F` 48

So what's the measured Activity for this one? `CCOc1ccc(CN(C)C)cc1NC(=O)[C@H](NC(=O)N1CCC(C(=O)CC(C)C)CC1)[C@@H](C)c1c[nH]c2ccccc12` 76

###

Test system: HepG2
Experiment: Induction of phospholipidosis in human HepG2 cells up to 50 uM after 24 hrs by NBD-PE fluorophore-based assay relative to amiodarone
Assay type: cell-based
Conditions: hepg2, 24 h
Returns yes (1) if the recorded Activity is greater than or equal to 60%, and no (0) otherwise.

Could you verify whether the entry `CCOc1ccc(CN(C)C)cc1NC(=O)[C@H](NC(=O)N1CCC(C(=O)c2cccs2)CC1)[C@@H](C)c1c[nH]c2ccccc12` shows Activity of no less than 60%? yes (1)

Could you verify whether the entry `CCOc1ccc(CN(C)C)cc1NC(=O)[C@H](NC(=O)N1CCN(c2ccc(F)cc2)C(=O)C1)[C@@H](C)c1c[nH]c2ccccc12` shows Activity of no less than 60%? no (0)

Could you verify whether the entry `CC(=O)c1ccc(CN(C)C)cc1NC(=O)[C@H](NC(=O)N1CCC(C(=O)C2CCC2)CC1)[C@@H](C)c1c[nH]c2ccccc12` shows Activity of no less than 60%? yes (1)

Could you verify whether the entry `CC(=O)c1ccc(CN(C)C)cc1NC(=O)[C@H](NC(=O)N1CCN(C(=O)C2CCC2)CC1)[C@@H](C)c1c[nH]c2ccccc12` shows Activity of no less than 60%? no (0)

Could you verify whether the entry `CC(=O)c1ccc(CN(C)C)cc1NC(=O)[C@H](NC(=O)N1CCN(c2ccc(F)cc2)C(=O)C1)[C@@H](C)c1c[nH]c2ccccc12` shows Activity of no less than 60%? no (0)

Could you verify whether the entry `CCOc1ccc(CN(C)C)cc1NC(=O)[C@H](NC(=O)N1CCC(c2ccccc2)CC1)[C@@H](C)c1c[nH]c2ccccc12` shows Activity of no less than 60%? yes (1)

Could you verify whether the entry `CCOc1ccc(CN(C)C)cc1NC(=O)[C@H](NC(=O)N1CCC(C(=O)C(C)C)CC1)[C@@H](C)c1c[nH]c2ccccc12` shows Activity of no less than 60%? yes (1)

Could you verify whether the entry `CC(=O)c1ccc(CN(C)C)cc1NC(=O)[C@H](NC(=O)N1CCC(C(=O)C(C)C)CC1)[C@@H](C)c1c[nH]c2ccccc12` shows Activity of no less than 60%? no (0)

Could you verify whether the entry `CC(=O)c1ccc(CN(C)C)cc1NC(=O)[C@H](NC(=O)N1CCC(C(=O)c2cccs2)CC1)[C@@H](C)c1c[nH]c2ccccc12` shows Activity of no less than 60%? yes (1)

Could you verify whether the entry `CCOc1ccc(CN(C)C)cc1NC(=O)[C@H](NC(=O)N1CCN(C(=O)C(C)(C)C)CC1)[C@@H](C)c1c[nH]c2ccccc12` shows Activity of no less than 60%? no (0)

Could you verify whether the entry `CCOc1ccc(CN(C)C)cc1NC(=O)[C@H](NC(=O)N1CCC(C(=O)c2nccs2)CC1)[C@@H](C)c1c[nH]c2ccccc12` shows Activity of no less than 60%? yes (1)

Could you verify whether the entry `CCOc1ccc(CN(C)C)cc1NC(=O)[C@H](NC(=O)N1CCC(C(=O)c2ccco2)CC1)[C@@H](C)c1c[nH]c2ccccc12` shows Activity of no less than 60%? no (0)

Could you verify whether the entry `C[C@@H](c1c[nH]c2ccccc12)[C@@H](NC(=O)N1CCN(c2ccc(F)cc2)C(=O)C1)C(=O)Nc1cc(CN(C)C)ccc1OC(F)(F)F` shows Activity of no less than 60%? no (0)

Could you verify whether the entry `CC(=O)c1ccc(CN(C)C)cc1NC(=O)[C@H](NC(=O)N1CCN(C(=O)C(C)(C)C)CC1)[C@@H](C)c1c[nH]c2ccccc12` shows Activity of no less than 60%? no (0)

Could you verify whether the entry `CCOc1ccc(CN(C)C)cc1NC(=O)[C@H](NC(=O)N1CCN(c2ccc(F)cc2C)C(=O)C1)[C@@H](C)c1c[nH]c2ccccc12` shows Activity of no less than 60%? no (0)

Could you verify whether the entry `CCOc1ccc(CN(C)C)cc1NC(=O)[C@H](NC(=O)N1CCN(c2ccc(F)cc2)CC1)[C@@H](C)c1c[nH]c2ccccc12` shows Activity of no less than 60%? yes (1)

Could you verify whether the entry `CCCCc1oc2ccccc2c1C(=O)c1cc(I)c(OCCN(CC)CC)c(I)c1` shows Activity of no less than 60%? yes (1)

Could you verify whether the entry `CCOc1ccc(CN(C)C)cc1NC(=O)[C@H](NC(=O)N1CCC(C(=O)c2ccccn2)CC1)[C@@H](C)c1c[nH]c2ccccc12` shows Activity of no less than 60%? yes (1)

Could you verify whether the entry `CC(=O)c1ccc(CN(C)C)cc1NC(=O)[C@H](NC(=O)N1CCN(c2ccc(F)cc2C)C(=O)C1)[C@@H](C)c1c[nH]c2ccccc12` shows Activity of no less than 60%? no (0)

Could you verify whether the entry `Cc1cc(F)ccc1N1CCN(C(=O)N[C@@H](C(=O)Nc2cc(CN(C)C)ccc2OC(F)(F)F)[C@@H](C)c2c[nH]c3ccccc23)CC1=O` shows Activity of no less than 60%? no (0)

###

Target: UniProtKB P30874
Sequence (P30874 whole entry): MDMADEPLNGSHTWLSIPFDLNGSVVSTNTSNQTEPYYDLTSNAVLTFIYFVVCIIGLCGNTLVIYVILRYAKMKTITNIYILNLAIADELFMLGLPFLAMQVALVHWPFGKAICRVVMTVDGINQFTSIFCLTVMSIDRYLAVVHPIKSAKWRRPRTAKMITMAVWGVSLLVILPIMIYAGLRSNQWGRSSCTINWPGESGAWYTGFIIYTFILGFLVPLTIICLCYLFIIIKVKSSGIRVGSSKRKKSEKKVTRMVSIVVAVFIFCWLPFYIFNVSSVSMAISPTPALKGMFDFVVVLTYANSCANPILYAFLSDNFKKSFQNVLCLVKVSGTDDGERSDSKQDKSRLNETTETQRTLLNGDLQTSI
Assay: Displacement of [125I]somatostatin-14 (Tyr11) from human SSTR2 expressed in CHO dhfr cell membranes after 60 mins by TopCount scintillation counting method
Mark each entry class 1 if its IC50 sits below 0.6 nM, and class 0 for all others.

I'd appreciate it if you could check whether `CCOc1ccc(CN(C)C)cc1NC(=O)[C@H](NC(=O)N1CCN(c2ccc(F)cc2)C(=O)C1)[C@@H](C)c1c[nH]c2ccccc12` has IC50 smaller than 0.6 nM. class 1

I'd appreciate it if you could check whether `C[C@@H](c1c[nH]c2ccccc12)[C@@H](NC(=O)N1CCN(c2ccc(F)cc2)C(=O)C1)C(=O)Nc1cc(CN(C)C)ccc1OC(F)(F)F` has IC50 smaller than 0.6 nM. class 1

I'd appreciate it if you could check whether `CCOc1ccc(CN(C)C)cc1NC(=O)[C@H](NC(=O)N1CCC(c2ccccc2)CC1)[C@@H](C)c1c[nH]c2ccccc12` has IC50 smaller than 0.6 nM. class 1

I'd appreciate it if you could check whether `CCOc1ccc(CN(C)C)cc1NC(=O)[C@H](NC(=O)N1CCC(C(=O)c2cccs2)CC1)[C@@H](C)c1c[nH]c2ccccc12` has IC50 smaller than 0.6 nM. class 1

I'd appreciate it if you could check whether `CCOc1ccc(CN(C)C)cc1NC(=O)[C@H](NC(=O)N1CCC(C(=O)c2nccs2)CC1)[C@@H](C)c1c[nH]c2ccccc12` has IC50 smaller than 0.6 nM. class 0

I'd appreciate it if you could check whether `CCOc1ccc(CN(C)C)cc1NC(=O)[C@H](NC(=O)N1CCC(C(=O)CC(C)C)CC1)[C@@H](C)c1c[nH]c2ccccc12` has IC50 smaller than 0.6 nM. class 0

I'd appreciate it if you could check whether `CC(=O)c1ccc(CN(C)C)cc1NC(=O)[C@H](NC(=O)N1CCC(C(=O)C2CCC2)CC1)[C@@H](C)c1c[nH]c2ccccc12` has IC50 smaller than 0.6 nM. class 0

I'd appreciate it if you could check whether `CCOc1ccc(CN(C)C)cc1NC(=O)[C@H](NC(=O)N1CCC(C(=O)C(C)C)CC1)[C@@H](C)c1c[nH]c2ccccc12` has IC50 smaller than 0.6 nM. class 0

I'd appreciate it if you could check whether `CCOc1ccc(CN(C)C)cc1NC(=O)[C@H](NC(=O)N1CCN(C(=O)C2CCC2)CC1)[C@@H](C)c1c[nH]c2ccccc12` has IC50 smaller than 0.6 nM. class 0

I'd appreciate it if you could check whether `CC(=O)c1ccc(CN(C)C)cc1NC(=O)[C@H](NC(=O)N1CCC(C(=O)C(C)C)CC1)[C@@H](C)c1c[nH]c2ccccc12` has IC50 smaller than 0.6 nM. class 0

I'd appreciate it if you could check whether `CCOc1ccc(CN(C)C)cc1NC(=O)[C@H](NC(=O)N1CCN(c2ccc(F)cc2)CC1)[C@@H](C)c1c[nH]c2ccccc12` has IC50 smaller than 0.6 nM. class 1

I'd appreciate it if you could check whether `CCOc1ccc(CN(C)C)cc1NC(=O)[C@H](NC(=O)N1CCN(c2ccc(F)cc2C)C(=O)C1)[C@@H](C)c1c[nH]c2ccccc12` has IC50 smaller than 0.6 nM. class 1

I'd appreciate it if you could check whether `CCOc1ccc(CN(C)C)cc1NC(=O)[C@H](NC(=O)N1CCC(C(=O)c2ccccn2)CC1)[C@@H](C)c1c[nH]c2ccccc12` has IC50 smaller than 0.6 nM. class 0
